Tested on: HT1080 human fibrosarcoma
Run description: Antiproliferative activity, MTT
Type: cell-based
Particulars: HT-1080, 48 h treatment, read-out: Antiproliferative Activity (IC50 ± SD) HT1080
Each entry below lists one item and its recorded IC50 value.
Measured quantity: IC50

[[record]]
molecule = "O=C(Nc1cccc(NC(=O)c2ccc(Nc3ccnc4ccccc34)cc2)c1)OCc1ccccc1 [Compound 4c]"
result = "3.9 µM"

[[record]]
molecule = "O=C(Nc1ccc(Nc2ccnc3ccccc23)cc1)c1cccc(Nc2ccnc3ccccc23)c1 [Compound 2a]"
result = "0.5 µM"

[[record]]
molecule = "O=C(Nc1cccc(Nc2ccnc3ccccc23)c1)c1cccc(Nc2ccnc3ccccc23)c1 [Compound 2b]"
result = "2.7 µM"

[[record]]
molecule = "O=C(Nc1cccc(Nc2ccnc3ccccc23)c1)c1ccc(Nc2ccnc3ccccc23)cc1 [Compound 2c]"
result = "2.6 µM"

[[record]]
molecule = "O=C(Nc1ccc(Nc2ccnc3ccccc23)cc1)c1ccc(Nc2ccnc3ccccc23)cc1 [Compound 2, reference compound]"
result = "17 µM"

[[record]]
molecule = "O=C(Nc1ccc(NC(=O)c2cccc(Nc3ccnc4ccccc34)c2)cc1)OCc1ccccc1 [Compound 4a]"
result = "19.5 µM"

[[record]]
molecule = "O=C(Nc1ccc(NC(=O)c2ccc(Nc3ccnc4ccccc34)cc2)cc1)OCc1ccccc1 [Compound 4, reference compound]"
result = "1.7 µM"

[[record]]
molecule = "O=C(Nc1cccc(NC(=O)c2cccc(Nc3ccnc4ccccc34)c2)c1)OCc1ccccc1 [Compound 4b]"
result = "13.1 µM"


---

Test system: HeLa epithelial cervix carcinoma
Run description: Antiproliferative activity, MTT
Assay type: cell-based
Particulars: Homo sapiens, 48 h treatment, read-out: Antiproliferative Activity (IC50 ± SD) HeLa
Each entry below lists one item and its recorded IC50 value.
Measured quantity: IC50 (µM)

[[record]]
molecule = "O=C(Nc1ccc(NC(=O)c2cccc(Nc3ccnc4ccccc34)c2)cc1)OCc1ccccc1"
quantitative_result = 77

[[record]]
molecule = "O=C(Nc1cccc(NC(=O)c2cccc(Nc3ccnc4ccccc34)c2)c1)OCc1ccccc1"
quantitative_result = 65

[[record]]
molecule = "O=C(Nc1ccc(Nc2ccnc3ccccc23)cc1)c1cccc(Nc2ccnc3ccccc23)c1"
quantitative_result = 0.14

[[record]]
molecule = "O=C(Nc1cccc(Nc2ccnc3ccccc23)c1)c1ccc(Nc2ccnc3ccccc23)cc1"
quantitative_result = 4.2

[[record]]
molecule = "O=C(Nc1ccc(NC(=O)c2ccc(Nc3ccnc4ccccc34)cc2)cc1)OCc1ccccc1 [Compound 4, reference compound]"
quantitative_result = 3.2

[[record]]
molecule = "O=C(Nc1cccc(Nc2ccnc3ccccc23)c1)c1cccc(Nc2ccnc3ccccc23)c1"
quantitative_result = 2

[[record]]
molecule = "O=C(Nc1ccc(Nc2ccnc3ccccc23)cc1)c1ccc(Nc2ccnc3ccccc23)cc1 [Compound 2, reference compound]"
quantitative_result = 52

[[record]]
molecule = "O=C(Nc1cccc(NC(=O)c2ccc(Nc3ccnc4ccccc34)cc2)c1)OCc1ccccc1"
quantitative_result = 7.4


---

Test system: luciferase reporter under methylated CMV promoter in KG-1 leukemia cells
Run description: CMV-luc assay in KG-1 cells
Format: cell-based
Particulars: KG-1 CMV-luc, 5 µM, vs DMSO
Each entry below lists one item and its recorded Luciferase Expression (Fold ± SD) value.
Measured quantity: Luciferase Expression (Fold ± SD) (fold)

[[record]]
molecule = "O=C(Nc1cccc(NC(=O)c2ccc(Nc3ccnc4ccccc34)cc2)c1)OCc1ccccc1"
quantitative_result = 40.40

[[record]]
molecule = "O=C(Nc1ccc(Nc2ccnc3ccccc23)cc1)c1cccc(Nc2ccnc3ccccc23)c1"
quantitative_result = 19.94

[[record]]
molecule = "O=C(Nc1ccc(NC(=O)c2cccc(Nc3ccnc4ccccc34)c2)cc1)OCc1ccccc1"
quantitative_result = 1.04

[[record]]
molecule = "Nc1ncn([C@H]2C[C@H](O)[C@@H](CO)O2)c(=O)n1 [DAC, 5-aza-2′-deoxycytidine, reference compound]"
quantitative_result = 23.82

